Data provenance is the supplement of paper PMC8149375.

tested on: 769-P; experiment: AUC of dose-response viability curve, drug + dasatinib, normalised to DMSO (arbitrary (AUC of normalised viability)); higher = less growth inhibition; details: treatment: drug + dasatinib (fixed dose, not stated); 5 days
MEASUREMENT LABEL: AUC of dose-response viability curve

[[record]]
molecule = "FC(F)c1nc2ccccc2n1-c1nc(N2CCOCC2)nc(N2CCOCC2)n1 [ZSTK474] + Cc1nc(Nc2ncc(C(=O)Nc3c(C)cccc3Cl)s2)cc(N2CCN(CCO)CC2)n1 [dasatinib]"
tested_system = "769-P"
value = 1.61

[[record]]
molecule = "Nc1ncnc2c1c(-c1cccc(OCc3ccccc3)c1)cn2[C@H]1C[C@H](CN2CCCC2)C1 [NVP-ADW742] + Cc1nc(Nc2ncc(C(=O)Nc3c(C)cccc3Cl)s2)cc(N2CCN(CCO)CC2)n1 [dasatinib]"
tested_system = "769-P"
value = 2.45

[[record]]
molecule = "CCOc1cc2ncc(C#N)c(Nc3ccc(OCc4ccccn4)c(Cl)c3)c2cc1NC(=O)/C=C/CN(C)C [Neratinib (HKI-272)] + Cc1nc(Nc2ncc(C(=O)Nc3c(C)cccc3Cl)s2)cc(N2CCN(CCO)CC2)n1 [dasatinib]"
tested_system = "769-P"
value = 1.59

[[record]]
molecule = "CC1(C)CCC(c2ccc(Cl)cc2)=C(CN2CCN(c3ccc(C(=O)NS(=O)(=O)c4ccc(N[C@H](CCN5CCOCC5)CSc5ccccc5)c(S(=O)(=O)C(F)(F)F)c4)cc3)CC2)C1 [ABT-263 (Navitoclax)] + Cc1nc(Nc2ncc(C(=O)Nc3c(C)cccc3Cl)s2)cc(N2CCN(CCO)CC2)n1 [dasatinib]"
tested_system = "769-P"
value = 1.92

[[record]]
molecule = "COc1cc2ncnc(Nc3ccc(F)c(Cl)c3)c2cc1NC(=O)/C=C/CN1CCCCC1 + Cc1nc(Nc2ncc(C(=O)Nc3c(C)cccc3Cl)s2)cc(N2CCN(CCO)CC2)n1 [dasatinib]"
tested_system = "769-P"
value = 1.25

[[record]]
molecule = "COc1cc2nccc(Oc3ccc(NC(=O)Nc4cc(C)on4)c(Cl)c3)c2cc1OC [Tivozanib (AV-951)] + Cc1nc(Nc2ncc(C(=O)Nc3c(C)cccc3Cl)s2)cc(N2CCN(CCO)CC2)n1 [dasatinib]"
tested_system = "769-P"
value = 2.1

[[record]]
molecule = "COc1ccc(-c2ccc3ncc4c(c3c2)n(-c2ccc(N3CCNCC3)c(C(F)(F)F)c2)c(=O)n4C)cn1.O=C(O)/C=C\\C(=O)O [NVP-BGT226] + Cc1nc(Nc2ncc(C(=O)Nc3c(C)cccc3Cl)s2)cc(N2CCN(CCO)CC2)n1 [dasatinib]"
tested_system = "769-P"
value = 0.87

[[record]]
molecule = "Nc1nc(N)c2nc(-c3cccc(O)c3)c(-c3cccc(O)c3)nc2n1 [TG100-115] + Cc1nc(Nc2ncc(C(=O)Nc3c(C)cccc3Cl)s2)cc(N2CCN(CCO)CC2)n1 [dasatinib]"
tested_system = "769-P"
value = 2.32

[[record]]
molecule = "O=C1c2ccccc2-c2n[nH]c3cccc1c23 + Cc1nc(Nc2ncc(C(=O)Nc3c(C)cccc3Cl)s2)cc(N2CCN(CCO)CC2)n1 [dasatinib]"
tested_system = "769-P"
value = 2.38


----------
test system: TK-10; assay: minimum viability across doses, drug alone, relative to DMSO (fraction); higher = less growth inhibition; settings: treatment: drug alone; 5 days
MEASUREMENT LABEL: minimum viability across doses

[[record]]
molecule = "CC(C)CC(=O)Nc1n[nH]c2c1CN(C(=O)C1CCN(C)CC1)C2(C)C"
tested_system = "TK-10"
value = 0.174

[[record]]
molecule = "CN(C)Cc1cccc(N/C(=C2\\C(=O)Nc3cc(C(=O)N(C)C)ccc32)c2ccccc2)c1"
tested_system = "TK-10"
value = 0.481

[[record]]
molecule = "CN1CCN(c2ccc([N+](=O)[O-])c3no[n+]([O-])c23)CC1"
tested_system = "TK-10"
value = 0.3

[[record]]
molecule = "CC[C@H](Nc1ncnc2[nH]cnc12)c1nc2cccc(F)c2c(=O)n1-c1ccccc1"
tested_system = "TK-10"
value = 0.701

[[record]]
molecule = "Cc1ccccc1-n1c(Cn2ncc3c(N)ncnc32)nc2cccc(C)c2c1=O"
tested_system = "TK-10"
value = 0.734

[[record]]
molecule = "CCN1CCN(c2ccc(Nc3cc(N(C)C(=O)Nc4c(Cl)c(OC)cc(OC)c4Cl)ncn3)cc2)CC1"
tested_system = "TK-10"
value = 0.327

[[record]]
molecule = "O=C(NCc1ccccc1)c1csc(Nc2ccncn2)n1"
tested_system = "TK-10"
value = 0.69

[[record]]
molecule = "C[C@@H](Oc1cc(-c2cnn(C3CCNCC3)c2)cnc1N)c1c(Cl)ccc(F)c1Cl"
tested_system = "TK-10"
value = 0.239

[[record]]
molecule = "N#Cc1c(O)c2c(-c3ccc(-c4ccccc4O)cc3)csc2[nH]c1=O"
tested_system = "TK-10"
value = 0.929

[[record]]
molecule = "CNC(=O)CN1CCC(Oc2cc3c(Nc4cccc(Cl)c4F)ncnc3cc2OC)CC1"
tested_system = "TK-10"
value = 0.333

[[record]]
molecule = "O=C(NOC[C@H](O)CO)c1ccc(F)c(F)c1Nc1ccc(I)cc1F"
tested_system = "TK-10"
value = 0.348

[[record]]
molecule = "Cn1cc(-c2ccc3ncc(Cc4ccc5ncccc5c4)n3n2)cn1"
tested_system = "TK-10"
value = 0.12

[[record]]
molecule = "Cc1cc(C(C)Nc2ccccc2)c2nc(N3CCOCC3)cc(=O)n2c1 (centres undefined)"
tested_system = "TK-10"
value = 0.707

[[record]]
molecule = "Cc1ccc(-n2nc(C(C)(C)C)cc2NC(=O)Nc2ccc(OCCN3CCOCC3)c3ccccc23)cc1"
tested_system = "TK-10"
value = 0.712

[[record]]
molecule = "CN(C)CC[C@H](CSc1ccccc1)Nc1ccc(S(=O)(=O)NC(=O)c2ccc(N3CCN(Cc4ccccc4-c4ccc(Cl)cc4)CC3)cc2)cc1[N+](=O)[O-]"
tested_system = "TK-10"
value = 0.253

[[record]]
molecule = "COC[C@H]1OC(=O)c2coc3c2[C@@]1(C)C1=C(C3=O)[C@@H]2CCC(=O)[C@@]2(C)C[C@@H]1OC(C)=O"
tested_system = "TK-10"
value = 0.725

[[record]]
molecule = "CN1CCN(C2CCN(C(=O)Nc3cc(Oc4ccc(NC(=O)C5(C(=O)Nc6ccc(F)cc6)CC5)c(F)c4)ccn3)CC2)CC1 [Golvatinib (E7050)]"
tested_system = "TK-10"
value = 0.284

[[record]]
molecule = "CC(C)c1cnn2c(NCc3ccccc3)cc(NCCCCCCN)nc12.Cl [BS-181 HCl]"
tested_system = "TK-10"
value = 0.696

[[record]]
molecule = "Oc1cccc(-c2nc(N3CCOCC3)c3oc4ncccc4c3n2)c1"
tested_system = "TK-10"
value = 0.136


----------
test system: CAKI-1; test: minimum viability across doses, drug + dasatinib, relative to DMSO (fraction); higher = less growth inhibition; conditions: treatment: drug + dasatinib (fixed dose, not stated); 5 days
MEASUREMENT LABEL: minimum viability across doses

[[record]]
compound = "CS(=O)(=O)O.N#CC1(c2ccc(NC(=O)c3cccnc3NCc3ccncc3)cc2)CCCC1 [Apatinib (YN968D1)] + Cc1nc(Nc2ncc(C(=O)Nc3c(C)cccc3Cl)s2)cc(N2CCN(CCO)CC2)n1"
measurement_label = "minimum viability across doses"
value = 0.572

[[record]]
compound = "CN(C)C/C=C/C(=O)Nc1cc2c(Nc3ccc(F)c(Cl)c3)ncnc2cc1O[C@H]1CCOC1 [Afatinib (BIBW2992)] + Cc1nc(Nc2ncc(C(=O)Nc3c(C)cccc3Cl)s2)cc(N2CCN(CCO)CC2)n1"
measurement_label = "minimum viability across doses"
value = 0.0121

[[record]]
compound = "CCCS(=O)(=O)Nc1ccc(F)c(C(=O)c2c[nH]c3ncc(-c4ccc(Cl)cc4)cc23)c1F [Vemurafenib (PLX4032)] + Cc1nc(Nc2ncc(C(=O)Nc3c(C)cccc3Cl)s2)cc(N2CCN(CCO)CC2)n1"
measurement_label = "minimum viability across doses"
value = 0.57

[[record]]
compound = "CC[C@@H]1C(=O)N(C)c2cnc(Nc3ccc(C(=O)N[C@H]4CC[C@H](N5CCN(CC6CC6)CC5)CC4)cc3OC)nc2N1C(C)C [BI6727 (Volasertib)] + Cc1nc(Nc2ncc(C(=O)Nc3c(C)cccc3Cl)s2)cc(N2CCN(CCO)CC2)n1"
measurement_label = "minimum viability across doses"
value = 0.00782

[[record]]
compound = "CC1(C)CCC(CN2CCN(c3ccc(C(=O)NS(=O)(=O)c4ccc(NCC5CCOCC5)c([N+](=O)[O-])c4)c(Oc4cnc5[nH]ccc5c4)c3)CC2)=C(c2ccc(Cl)cc2)C1 [ABT-199 (GDC-0199 )] + Cc1nc(Nc2ncc(C(=O)Nc3c(C)cccc3Cl)s2)cc(N2CCN(CCO)CC2)n1"
measurement_label = "minimum viability across doses"
value = 0.592

[[record]]
compound = "CCN(CCO)CCCOc1ccc2c(Nc3cc(CC(=O)Nc4cccc(F)c4)n[nH]3)ncnc2c1 [Barasertib (AZD1152-HQPA)] + Cc1nc(Nc2ncc(C(=O)Nc3c(C)cccc3Cl)s2)cc(N2CCN(CCO)CC2)n1"
measurement_label = "minimum viability across doses"
value = 0.402

[[record]]
compound = "Cc1nc(Nc2ncc(C(=O)Nc3c(C)cccc3Cl)s2)cc(N2CCN(CCO)CC2)n1 + Cc1nc(Nc2ncc(C(=O)Nc3c(C)cccc3Cl)s2)cc(N2CCN(CCO)CC2)n1"
measurement_label = "minimum viability across doses"
value = 0.0256

[[record]]
compound = "Oc1ccc(-c2nc(-c3ccc(F)cc3)c(-c3ccncc3)[nH]2)cc1 + Cc1nc(Nc2ncc(C(=O)Nc3c(C)cccc3Cl)s2)cc(N2CCN(CCO)CC2)n1"
measurement_label = "minimum viability across doses"
value = 0.555

[[record]]
compound = "Oc1cccc(-c2nc(N3CCOCC3)c3oc4ncccc4c3n2)c1 [PI-103] + Cc1nc(Nc2ncc(C(=O)Nc3c(C)cccc3Cl)s2)cc(N2CCN(CCO)CC2)n1"
measurement_label = "minimum viability across doses"
value = 0.0121

[[record]]
compound = "CC(C)(O)CC(=O)NCCn1ccc2ncnc(Nc3ccc(Oc4cccc(C(F)(F)F)c4)c(Cl)c3)c21 [TAK-285] + Cc1nc(Nc2ncc(C(=O)Nc3c(C)cccc3Cl)s2)cc(N2CCN(CCO)CC2)n1"
measurement_label = "minimum viability across doses"
value = 0.311

[[record]]
compound = "CN(C)CCOc1ccc(-c2nc(-c3ccncc3)c(-c3ccc4c(c3)CC/C4=N/O)[nH]2)cc1 + Cc1nc(Nc2ncc(C(=O)Nc3c(C)cccc3Cl)s2)cc(N2CCN(CCO)CC2)n1"
measurement_label = "minimum viability across doses"
value = 0.0583

[[record]]
compound = "Cc1[nH]c(/C=C2\\C(=O)Nc3ccc(S(=O)(=O)Cc4c(Cl)cccc4Cl)cc32)c(C)c1C(=O)N1CCC[C@@H]1CN1CCCC1 + Cc1nc(Nc2ncc(C(=O)Nc3c(C)cccc3Cl)s2)cc(N2CCN(CCO)CC2)n1"
measurement_label = "minimum viability across doses"
value = 0.00431

[[record]]
compound = "NC(=O)Nc1sc(-c2ccc(F)cc2)cc1C(N)=O [TPCA-1] + Cc1nc(Nc2ncc(C(=O)Nc3c(C)cccc3Cl)s2)cc(N2CCN(CCO)CC2)n1"
measurement_label = "minimum viability across doses"
value = 0.076

[[record]]
compound = "COc1ccc(C2=NC(c3ccc(Cl)cc3)C(c3ccc(Cl)cc3)N2C(=O)N2CCNC(=O)C2)c(OC(C)C)c1 (configuration not stated) [Nutlin-3] + Cc1nc(Nc2ncc(C(=O)Nc3c(C)cccc3Cl)s2)cc(N2CCN(CCO)CC2)n1"
measurement_label = "minimum viability across doses"
value = 0.168

[[record]]
compound = "COc1cc2ncnc(Nc3ccc(O)c(Br)c3)c2cc1OC [WHI-P154] + Cc1nc(Nc2ncc(C(=O)Nc3c(C)cccc3Cl)s2)cc(N2CCN(CCO)CC2)n1"
measurement_label = "minimum viability across doses"
value = 0.211

[[record]]
compound = "COc1ccc2c(OCc3nnc4ccc(-c5ccccc5)nn34)ccnc2c1 [AMG-208] + Cc1nc(Nc2ncc(C(=O)Nc3c(C)cccc3Cl)s2)cc(N2CCN(CCO)CC2)n1"
measurement_label = "minimum viability across doses"
value = 0.613

[[record]]
compound = "O=C1CCC(N2C(=O)c3ccccc3C2=O)C(=O)N1 (configuration not stated) [Thalidomide] + Cc1nc(Nc2ncc(C(=O)Nc3c(C)cccc3Cl)s2)cc(N2CCN(CCO)CC2)n1"
measurement_label = "minimum viability across doses"
value = 0.638

